Assay: Cytotoxicity against human HCA7 cells measured after 8 days
Format: functional, cell-based
Settings: HCA-7, 192 h
PARAMETER: pIC50
Lab note — pIC50 values are minus log10 of concentrations in M.

- ENTRY SMILES: "C/C=C/Cn1cc(-c2cc(OC)c(C(=O)N3CCOCC3)cc2OC)c2cc(C)[nH]c2c1=O"
  pIC50: 5.70

Incoming: # lookup: pIC50 of "C/C=C/Cn1cc(-c2ccc(C(=O)N3CCOCC3)cc2)c2cc[nH]c2c1=O"
Outgoing: 4.70

Incoming: # lookup: pIC50 of "C/C=C/Cn1cc(-c2ccc(C(C)(C)O)cc2OC)c2cc[nH]c2c1=O"
Outgoing: 4.70

* * *

Test system: NCI-H1703
Experiment: Cytotoxicity against human NCI-H1703 cells measured after 8 days
Format: functional, cell-based
Details: NCI-H1703, 192 h
PARAMETER: IC50 (µM)
Just the number in µM, nothing appended.

Some entries whose results are on file:
- ENTRY SMILES: "C/C=C/Cn1cc(-c2cc(OC)c(C(=O)N3CCOCC3)cc2OC)c2cc(C)[nH]c2c1=O"
  IC50 (µM): 2
- ENTRY SMILES: "C/C=C/Cn1cc(-c2ccc(C(C)(C)O)cc2OC)c2cc[nH]c2c1=O"
  IC50 (µM): 20

Below: the item to evaluate.
Incoming: Which measured IC50 belongs to "C/C=C/Cn1cc(-c2ccc(C(=O)N3CCOCC3)cc2)c2cc[nH]c2c1=O" , tested on NCI-H1703?
Outgoing: 20

* * *

Listed next: entries and their corresponding pIC50.
Tested on: EVSA-T
Assay: Cytotoxicity against human EVSA-T cells measured after 8 days
Type: functional, cell-based
Settings: 192 h
Lab note — pIC50 values are minus log10 of concentrations in M.

- ENTRY SMILES: "C/C=C/Cn1cc(-c2ccc(C(C)(C)O)cc2OC)c2cc[nH]c2c1=O"
  MEASURED TARGET: "EVSA-T"
  pIC50: 4.70
- ENTRY SMILES: "C/C=C/Cn1cc(-c2ccc(C(=O)N3CCOCC3)cc2)c2cc[nH]c2c1=O"
  MEASURED TARGET: "EVSA-T"
  pIC50: 4.70

Incoming: # lookup: pIC50 of "C/C=C/Cn1cc(-c2cc(OC)c(C(=O)N3CCOCC3)cc2OC)c2cc(C)[nH]c2c1=O"
Outgoing: 5.70

* * *

Test system: NCI-H2122
Test: Cytotoxicity against human NCI-H2122 cells measured after 8 days
Assay type: functional, cell-based
Conditions: NCI-H2122, 192 h
PARAMETER: IC50 (µM)
Just the number in µM, nothing appended.

Some entries whose results are on file:
- ENTRY SMILES: "C/C=C/Cn1cc(-c2ccc(C(=O)N3CCOCC3)cc2)c2cc[nH]c2c1=O"
  PARAMETER: "IC50"
  UNIT LABEL: "µM"
  MEASURED NUMBER: 20
- ENTRY SMILES: "C/C=C/Cn1cc(-c2cc(OC)c(C(=O)N3CCOCC3)cc2OC)c2cc(C)[nH]c2c1=O"
  PARAMETER: "IC50"
  UNIT LABEL: "µM"
  MEASURED NUMBER: 2

Incoming: # lookup: IC50 of "C/C=C/Cn1cc(-c2ccc(C(C)(C)O)cc2OC)c2cc[nH]c2c1=O"
Outgoing: 20

* * *

Target: Bromodomain and WD repeat-containing protein 1 (Homo sapiens)
Sequence (Q9NSI6 whole entry, the tested form may be a part): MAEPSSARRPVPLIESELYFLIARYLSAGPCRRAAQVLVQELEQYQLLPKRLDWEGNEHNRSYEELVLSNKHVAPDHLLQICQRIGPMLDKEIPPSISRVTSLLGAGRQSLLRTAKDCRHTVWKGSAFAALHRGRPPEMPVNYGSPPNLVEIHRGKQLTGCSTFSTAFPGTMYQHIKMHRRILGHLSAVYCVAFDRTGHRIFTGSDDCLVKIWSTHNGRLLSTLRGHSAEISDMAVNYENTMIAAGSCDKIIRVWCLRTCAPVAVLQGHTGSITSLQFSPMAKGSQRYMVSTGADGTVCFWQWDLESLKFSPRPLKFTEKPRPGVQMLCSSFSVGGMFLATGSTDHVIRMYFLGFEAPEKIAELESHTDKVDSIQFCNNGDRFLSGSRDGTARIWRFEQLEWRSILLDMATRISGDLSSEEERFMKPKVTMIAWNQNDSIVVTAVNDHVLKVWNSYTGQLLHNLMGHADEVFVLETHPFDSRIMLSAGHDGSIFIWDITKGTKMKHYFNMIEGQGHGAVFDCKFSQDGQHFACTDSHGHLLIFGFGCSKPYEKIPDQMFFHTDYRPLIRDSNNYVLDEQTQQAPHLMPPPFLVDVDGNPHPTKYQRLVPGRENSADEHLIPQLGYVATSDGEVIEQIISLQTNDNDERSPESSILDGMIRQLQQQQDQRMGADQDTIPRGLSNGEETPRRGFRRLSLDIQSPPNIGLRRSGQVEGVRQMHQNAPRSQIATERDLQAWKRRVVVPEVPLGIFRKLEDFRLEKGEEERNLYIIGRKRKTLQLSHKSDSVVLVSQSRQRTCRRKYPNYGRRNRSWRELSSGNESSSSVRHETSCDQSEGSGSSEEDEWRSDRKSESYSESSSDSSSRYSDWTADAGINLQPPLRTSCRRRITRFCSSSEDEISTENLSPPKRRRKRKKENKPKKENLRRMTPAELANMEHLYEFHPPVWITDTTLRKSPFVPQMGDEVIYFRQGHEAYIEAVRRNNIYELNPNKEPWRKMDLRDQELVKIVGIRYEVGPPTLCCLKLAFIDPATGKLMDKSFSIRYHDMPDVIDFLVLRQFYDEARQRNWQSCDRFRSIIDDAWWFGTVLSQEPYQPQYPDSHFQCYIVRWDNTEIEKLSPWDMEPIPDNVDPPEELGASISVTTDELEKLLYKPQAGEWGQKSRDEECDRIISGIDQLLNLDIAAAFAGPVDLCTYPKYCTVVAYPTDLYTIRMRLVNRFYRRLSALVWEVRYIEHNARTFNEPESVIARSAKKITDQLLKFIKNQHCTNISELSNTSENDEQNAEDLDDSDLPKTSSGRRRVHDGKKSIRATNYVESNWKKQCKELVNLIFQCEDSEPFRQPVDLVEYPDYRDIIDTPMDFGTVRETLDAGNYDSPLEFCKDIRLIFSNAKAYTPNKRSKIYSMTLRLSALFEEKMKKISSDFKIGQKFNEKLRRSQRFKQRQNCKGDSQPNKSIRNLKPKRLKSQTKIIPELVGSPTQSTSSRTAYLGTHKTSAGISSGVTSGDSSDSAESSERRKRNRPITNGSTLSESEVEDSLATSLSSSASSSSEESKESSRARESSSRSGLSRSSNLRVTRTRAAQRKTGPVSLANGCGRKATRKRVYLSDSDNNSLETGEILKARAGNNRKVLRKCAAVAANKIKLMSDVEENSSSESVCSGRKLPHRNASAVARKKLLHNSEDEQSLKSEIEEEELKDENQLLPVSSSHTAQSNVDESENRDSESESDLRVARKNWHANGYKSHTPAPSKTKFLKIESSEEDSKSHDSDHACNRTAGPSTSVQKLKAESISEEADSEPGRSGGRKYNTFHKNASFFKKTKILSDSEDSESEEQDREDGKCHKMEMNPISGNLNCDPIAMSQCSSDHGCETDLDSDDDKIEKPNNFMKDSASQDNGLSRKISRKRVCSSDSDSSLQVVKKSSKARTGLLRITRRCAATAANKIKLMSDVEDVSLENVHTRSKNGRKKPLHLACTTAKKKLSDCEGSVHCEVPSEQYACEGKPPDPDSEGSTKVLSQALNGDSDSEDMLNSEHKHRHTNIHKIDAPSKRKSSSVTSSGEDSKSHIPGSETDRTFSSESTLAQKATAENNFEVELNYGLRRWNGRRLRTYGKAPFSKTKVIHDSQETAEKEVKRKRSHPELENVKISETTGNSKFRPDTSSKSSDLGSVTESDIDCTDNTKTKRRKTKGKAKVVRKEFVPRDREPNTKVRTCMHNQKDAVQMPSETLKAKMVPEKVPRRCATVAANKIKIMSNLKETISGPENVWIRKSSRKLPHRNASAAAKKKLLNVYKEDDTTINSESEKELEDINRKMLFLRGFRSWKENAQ
Assay: Binding affinity to human partial length WDR9 bromodomain 2 (A1310 to E1430 residues) expressed in bacterial expression system by BROMOscan assay
PARAMETER: Kd

Some entries whose results are on file:
- ENTRY SMILES: "C/C=C/Cn1cc(-c2cc(OC)c(C(C)(C)O)cc2OC)c2cc(C)[nH]c2c1=O"
  MEASURED TARGET: "Bromodomain and WD repeat-containing protein 1 (Homo sapiens)"
  RESULT: "> 10 µM"
- ENTRY SMILES: "C/C=C/Cn1cc(-c2ccc(C(=O)N3CCOCC3)cc2)c2cc[nH]c2c1=O"
  MEASURED TARGET: "Bromodomain and WD repeat-containing protein 1 (Homo sapiens)"
  RESULT: "27 µM"
- ENTRY SMILES: "C/C=C/Cn1cc(-c2cc(OC)c(C(=O)N3CCOCC3)cc2OC)c2cc(C)[nH]c2c1=O"
  MEASURED TARGET: "Bromodomain and WD repeat-containing protein 1 (Homo sapiens)"
  RESULT: "> 5 µM"

Below: the item to evaluate.
Incoming: # lookup: Kd of "C/C=C/Cn1cc(-c2ccc(C(C)(C)O)cc2OC)c2cc[nH]c2c1=O"
Outgoing: > 10 µM

* * *

Tested on: PEO1
Assay: Cytotoxicity against human PEO1 cells measured after 3 days
Format: functional, cell-based
Settings: PEO1, 72 h
PARAMETER: IC50 (µM)
Just the number in µM, nothing appended.

Incoming: # lookup: IC50 of "C/C=C/Cn1cc(-c2cc(OC)c(C(=O)N3CCOCC3)cc2OC)c2cc(C)[nH]c2c1=O"
Outgoing: 5

* * *

Target: Bromodomain-containing protein 2 (Homo sapiens, UniProt P25440)
Sequence (P25440 whole entry, the tested form may be a part, canonical isoform): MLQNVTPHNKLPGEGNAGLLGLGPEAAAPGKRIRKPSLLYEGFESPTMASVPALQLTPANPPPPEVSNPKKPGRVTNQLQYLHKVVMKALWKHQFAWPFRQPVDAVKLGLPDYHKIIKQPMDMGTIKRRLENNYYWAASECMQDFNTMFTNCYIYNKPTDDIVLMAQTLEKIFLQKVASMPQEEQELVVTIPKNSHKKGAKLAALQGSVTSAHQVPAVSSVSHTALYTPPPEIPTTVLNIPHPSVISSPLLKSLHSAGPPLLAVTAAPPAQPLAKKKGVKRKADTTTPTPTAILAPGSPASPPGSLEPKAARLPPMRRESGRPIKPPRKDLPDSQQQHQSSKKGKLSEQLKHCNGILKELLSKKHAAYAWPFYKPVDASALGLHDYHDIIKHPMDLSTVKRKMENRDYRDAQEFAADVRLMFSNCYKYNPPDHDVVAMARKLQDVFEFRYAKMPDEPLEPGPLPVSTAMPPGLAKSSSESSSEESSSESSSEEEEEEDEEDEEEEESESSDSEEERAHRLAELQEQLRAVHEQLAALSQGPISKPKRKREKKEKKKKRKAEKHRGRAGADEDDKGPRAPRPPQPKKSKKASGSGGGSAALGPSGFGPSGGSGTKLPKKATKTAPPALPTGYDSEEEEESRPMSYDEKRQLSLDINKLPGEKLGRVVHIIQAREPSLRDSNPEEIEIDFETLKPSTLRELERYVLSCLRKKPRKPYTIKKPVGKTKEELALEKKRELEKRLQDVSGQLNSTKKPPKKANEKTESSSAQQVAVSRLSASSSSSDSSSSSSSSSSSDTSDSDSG
Assay: Binding affinity to human partial length BRD2 bromodomain 1 long isoform (K71 to N194 residues) expressed in bacterial expression system by BROMOscan assay
Listed next: entries and their corresponding pKd.
Lab note — pKd values are minus log10 of concentrations in M.

Incoming: Which measured pKd belongs to "C/C=C/Cn1cc(-c2ccc(C(C)(C)O)cc2OC)c2cc[nH]c2c1=O" , tested on Bromodomain-containing protein 2 (Homo sapiens, UniProt P25440)?
Outgoing: 5.57

Incoming: Which measured pKd belongs to "C/C=C/Cn1cc(-c2ccc(C(=O)N3CCOCC3)cc2)c2cc[nH]c2c1=O" , tested on Bromodomain-containing protein 2 (Homo sapiens, UniProt P25440)?
Outgoing: 5.40

* * *

Test system: EFO-27
Test: Cytotoxicity against human EFO-27 cells measured after 3 days
Type: functional, cell-based
Conditions: EFO-27, 72 h
PARAMETER: pIC50
Lab note — pIC50 values are minus log10 of concentrations in M.

Incoming: # lookup: pIC50 of "C/C=C/Cn1cc(-c2cc(OC)c(C(=O)N3CCOCC3)cc2OC)c2cc(C)[nH]c2c1=O"
Outgoing: 5.30

* * *

Test system: LCLC-97TM1
Test: Cytotoxicity against human LCLC-97TM1 cells measured after 8 days
Assay type: functional, cell-based
Conditions: LCLC-97TM1, 192 h
PARAMETER: IC50 (µM)
Just the number in µM, nothing appended.

Some entries whose results are on file:
- ENTRY SMILES: "C/C=C/Cn1cc(-c2ccc(C(=O)N3CCOCC3)cc2)c2cc[nH]c2c1=O"
  MEASURED TARGET: "LCLC-97TM1"
  MEASURED NUMBER: 20
- ENTRY SMILES: "C/C=C/Cn1cc(-c2ccc(C(C)(C)O)cc2OC)c2cc[nH]c2c1=O"
  MEASURED TARGET: "LCLC-97TM1"
  MEASURED NUMBER: 20

Below: the item to evaluate.
Incoming: # lookup: IC50 of "C/C=C/Cn1cc(-c2cc(OC)c(C(=O)N3CCOCC3)cc2OC)c2cc(C)[nH]c2c1=O"
Outgoing: 2

* * *

Tested on: DB
Experiment: Cytotoxicity against human DB cells measured after 8 days
Assay type: functional, cell-based
Details: 192 h
PARAMETER: pIC50
Lab note — pIC50 values are minus log10 of concentrations in M.

Some entries whose results are on file:
- ENTRY SMILES: "C/C=C/Cn1cc(-c2ccc(C(C)(C)O)cc2OC)c2cc[nH]c2c1=O"
  MEASURED NUMBER: 4.77
- ENTRY SMILES: "C/C=C/Cn1cc(-c2ccc(C(=O)N3CCOCC3)cc2)c2cc[nH]c2c1=O"
  MEASURED NUMBER: 4.70

Incoming: # lookup: pIC50 of "C/C=C/Cn1cc(-c2cc(OC)c(C(=O)N3CCOCC3)cc2OC)c2cc(C)[nH]c2c1=O"
Outgoing: 5.70

* * *

Listed next: entries and their corresponding pIC50.
Assay: Cytotoxicity against human HEC-265 cells measured after 8 days
Assay type: functional, cell-based
Conditions: HEC-265, 192 h
Lab note — pIC50 values are minus log10 of concentrations in M.

- ENTRY SMILES: "C/C=C/Cn1cc(-c2ccc(C(C)(C)O)cc2OC)c2cc[nH]c2c1=O"
  pIC50: 4.70

Below: the item to evaluate.
Incoming: # lookup: pIC50 of "C/C=C/Cn1cc(-c2ccc(C(=O)N3CCOCC3)cc2)c2cc[nH]c2c1=O"
Outgoing: 4.70

* * *

Experiment: Cytotoxicity against human Ci-1 cells measured after 3 days
Type: functional, cell-based
Conditions: Ci-1, 72 h
PARAMETER: IC50 (µM)
Just the number in µM, nothing appended.

Incoming: # lookup: IC50 of "C/C=C/Cn1cc(-c2cc(OC)c(C(=O)N3CCOCC3)cc2OC)c2cc(C)[nH]c2c1=O"
Outgoing: 5
